Reference source: paper PMC8769072

# targetEntity: AP2B1 700-937, P63010
# Sequence (P63010 700-937): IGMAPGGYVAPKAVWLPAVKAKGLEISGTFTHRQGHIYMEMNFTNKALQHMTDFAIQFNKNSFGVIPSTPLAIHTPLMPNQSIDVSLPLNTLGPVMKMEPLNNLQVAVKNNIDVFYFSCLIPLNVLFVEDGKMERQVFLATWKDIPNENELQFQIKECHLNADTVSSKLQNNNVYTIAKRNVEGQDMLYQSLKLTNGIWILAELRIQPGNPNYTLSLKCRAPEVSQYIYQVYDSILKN
endpoint: selected by phage display

binder: MSGWAEGPRMLSWAPF [TSPO2, Q5TGU0]
assayResult: confidence 3 (active)
//
binder: LNSPAWEASGLHWSSL [GNAS, P84996]
assayResult: confidence 3 (active)
//
binder: SANADFANFDAFGQSS [AGFG1, P52594]
assayResult: confidence 3 (active)
//
binder: AGLGGPVDFSDLPWPL [ARNTL, O00327]
assayResult: confidence 2 (active)
//
binder: ASSPVNWAAPWANAMN [TEX13C, A0A0J9YWL9]
assayResult: confidence 3 (active)
//
binder: EWLYGGPWDVHVHSDL [FIP1L1, Q6UN15]
assayResult: confidence 2 (active)
